Below is a list of entries, each paired with its recorded IC50 value.
target: human α1G subunits (T-type channels) (Homo sapiens); construct: expressed in transfected cells; assay: Block of α1G T-type channels, patch clamp in HEK cell lines (Example 8); assay type: cell-based; conditions: 100 mV (non-inactivating protocol); read-out: Block of α1G T-type Channels IC50, 100 mV
Sequence (O43497 whole entry): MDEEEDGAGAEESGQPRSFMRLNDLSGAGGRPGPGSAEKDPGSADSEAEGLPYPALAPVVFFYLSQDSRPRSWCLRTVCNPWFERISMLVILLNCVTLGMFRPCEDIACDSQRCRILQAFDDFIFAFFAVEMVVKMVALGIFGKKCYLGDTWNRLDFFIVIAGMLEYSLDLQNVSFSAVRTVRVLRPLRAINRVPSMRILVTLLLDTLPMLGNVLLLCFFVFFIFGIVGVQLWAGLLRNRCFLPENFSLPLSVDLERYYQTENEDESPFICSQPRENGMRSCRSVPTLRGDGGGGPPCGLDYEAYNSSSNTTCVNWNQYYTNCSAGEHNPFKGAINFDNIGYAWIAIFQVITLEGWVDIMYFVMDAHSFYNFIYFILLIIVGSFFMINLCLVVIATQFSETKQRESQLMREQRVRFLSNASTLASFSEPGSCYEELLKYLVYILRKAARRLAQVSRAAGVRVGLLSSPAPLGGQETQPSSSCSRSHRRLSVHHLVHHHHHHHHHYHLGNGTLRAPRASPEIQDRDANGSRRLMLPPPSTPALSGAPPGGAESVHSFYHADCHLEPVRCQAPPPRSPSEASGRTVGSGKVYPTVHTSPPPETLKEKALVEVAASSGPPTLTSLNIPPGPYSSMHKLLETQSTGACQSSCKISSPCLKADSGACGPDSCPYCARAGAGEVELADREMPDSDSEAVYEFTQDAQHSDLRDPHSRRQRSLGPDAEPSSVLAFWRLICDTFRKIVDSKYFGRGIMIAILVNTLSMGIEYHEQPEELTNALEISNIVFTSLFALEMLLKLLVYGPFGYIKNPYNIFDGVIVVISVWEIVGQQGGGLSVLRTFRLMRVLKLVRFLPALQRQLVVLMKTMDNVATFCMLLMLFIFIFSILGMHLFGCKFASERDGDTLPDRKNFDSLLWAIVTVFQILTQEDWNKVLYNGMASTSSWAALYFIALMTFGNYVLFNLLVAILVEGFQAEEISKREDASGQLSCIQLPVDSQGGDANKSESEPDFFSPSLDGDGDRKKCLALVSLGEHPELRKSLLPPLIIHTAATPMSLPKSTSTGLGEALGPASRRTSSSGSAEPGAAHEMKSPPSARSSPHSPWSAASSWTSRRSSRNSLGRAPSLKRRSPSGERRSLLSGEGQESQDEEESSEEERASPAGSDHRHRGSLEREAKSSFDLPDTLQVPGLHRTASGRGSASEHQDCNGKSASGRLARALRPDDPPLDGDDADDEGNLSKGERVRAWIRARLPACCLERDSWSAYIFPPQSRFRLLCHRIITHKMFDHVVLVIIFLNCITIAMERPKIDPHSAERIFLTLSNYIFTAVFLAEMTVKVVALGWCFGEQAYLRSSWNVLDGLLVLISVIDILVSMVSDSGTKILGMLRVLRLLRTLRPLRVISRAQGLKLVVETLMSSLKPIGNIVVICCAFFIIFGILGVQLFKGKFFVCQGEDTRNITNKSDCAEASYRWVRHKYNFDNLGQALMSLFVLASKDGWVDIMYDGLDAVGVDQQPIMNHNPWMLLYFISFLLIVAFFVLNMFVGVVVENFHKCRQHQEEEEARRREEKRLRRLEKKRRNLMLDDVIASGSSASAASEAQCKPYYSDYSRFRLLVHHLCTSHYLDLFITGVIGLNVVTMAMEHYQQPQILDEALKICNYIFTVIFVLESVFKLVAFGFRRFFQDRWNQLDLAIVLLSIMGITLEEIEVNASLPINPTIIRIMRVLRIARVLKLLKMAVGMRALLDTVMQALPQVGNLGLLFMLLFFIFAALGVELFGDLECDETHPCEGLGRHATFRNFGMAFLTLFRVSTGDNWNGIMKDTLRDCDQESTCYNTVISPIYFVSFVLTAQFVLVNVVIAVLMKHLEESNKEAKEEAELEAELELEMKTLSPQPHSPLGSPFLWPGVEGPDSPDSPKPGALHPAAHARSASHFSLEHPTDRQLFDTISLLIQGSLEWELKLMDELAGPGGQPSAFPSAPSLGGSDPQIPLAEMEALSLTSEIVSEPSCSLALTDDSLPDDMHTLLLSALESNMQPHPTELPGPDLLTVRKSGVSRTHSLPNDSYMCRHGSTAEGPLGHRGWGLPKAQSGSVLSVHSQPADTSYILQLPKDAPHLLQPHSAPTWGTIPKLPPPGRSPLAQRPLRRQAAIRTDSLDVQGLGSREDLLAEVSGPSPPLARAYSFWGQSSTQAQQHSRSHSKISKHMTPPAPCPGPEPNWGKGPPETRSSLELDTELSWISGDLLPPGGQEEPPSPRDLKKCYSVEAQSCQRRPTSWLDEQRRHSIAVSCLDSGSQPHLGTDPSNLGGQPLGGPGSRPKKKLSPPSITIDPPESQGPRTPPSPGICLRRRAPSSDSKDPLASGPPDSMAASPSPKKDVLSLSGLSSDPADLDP

Example cases with answers are listed next.
Any idea what IC50 was measured for O=C(CC(c1ccccc1)c1ccccc1)N1CCN(C(c2ccccc2)c2cc(Cl)cc(Cl)c2)CC1 (stereo not drawn) [Compound P9] ?
> 1000 nM

Any idea what IC50 was measured for O=C(CC(c1ccccc1)c1ccccc1)N1CCN(C(c2ccccc2)c2c(Cl)cccc2Cl)CC1 (stereo not drawn) [Compound P13] ?
< 1000 nM

We now examine a further molecule.
Any idea what IC50 was measured for O=C(CC(c1ccccc1)c1ccccc1)N1CCN(C(c2ccccc2)c2ccc(Cl)c(Cl)c2)CC1 (stereo not drawn) [Compound P30] ?
> 1000 nM

Just for reference, patent US20040259866A1 is where these values come from.
